system name: Recombinant full length human OGA enzyme (Homo sapiens (Human))
Sequence (O60502 whole entry): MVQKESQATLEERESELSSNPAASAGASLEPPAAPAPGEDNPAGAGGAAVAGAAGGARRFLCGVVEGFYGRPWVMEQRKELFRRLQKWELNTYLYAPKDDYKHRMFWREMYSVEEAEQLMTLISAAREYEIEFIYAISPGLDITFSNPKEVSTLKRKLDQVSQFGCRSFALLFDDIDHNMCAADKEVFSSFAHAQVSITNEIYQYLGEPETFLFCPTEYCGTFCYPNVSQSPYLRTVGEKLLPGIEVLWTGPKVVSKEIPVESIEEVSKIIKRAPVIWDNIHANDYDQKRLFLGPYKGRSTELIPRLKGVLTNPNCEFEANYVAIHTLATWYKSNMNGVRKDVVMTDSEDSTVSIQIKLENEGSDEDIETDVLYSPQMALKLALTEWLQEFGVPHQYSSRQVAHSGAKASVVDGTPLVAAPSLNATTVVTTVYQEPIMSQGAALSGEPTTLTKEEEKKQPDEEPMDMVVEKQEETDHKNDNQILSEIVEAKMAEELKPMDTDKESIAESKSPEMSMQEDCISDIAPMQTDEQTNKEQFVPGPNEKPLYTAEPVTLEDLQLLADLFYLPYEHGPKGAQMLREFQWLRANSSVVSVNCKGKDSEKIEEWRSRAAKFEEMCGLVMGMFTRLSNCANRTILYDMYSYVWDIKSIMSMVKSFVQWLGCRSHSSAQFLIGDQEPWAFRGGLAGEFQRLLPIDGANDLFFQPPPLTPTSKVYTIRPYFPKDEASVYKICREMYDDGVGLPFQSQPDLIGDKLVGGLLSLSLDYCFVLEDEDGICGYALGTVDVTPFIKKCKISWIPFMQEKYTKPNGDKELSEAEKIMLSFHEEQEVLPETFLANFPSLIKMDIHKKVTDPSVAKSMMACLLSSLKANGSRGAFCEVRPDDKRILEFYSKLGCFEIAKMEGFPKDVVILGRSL
test name: OGA Enzyme Inhibition Biochemical Assay
condition details: 1 nM OGA, 100 μM 4-MUGlcNAc, pH 6.4
Procedure: Recombinant full length human OGA enzyme was purchased from Origene. 4-MUGlcNAc substrate was purchased from Sigma. All other reagents were purchased from Sigma or Fisher. Assay buffer consists of the McIlvaine buffer system, pH 6.4 (0.2M Na2HPO4 mixed with 0.1M citric acid) and 0.01% BSA. […] Reactions were incubated for 90 minutes at room temperature and quenched with 40 μl of 3M glycine, pH 10 and read on a Perkin Elmer Envision plate reader (Ex: 355 nm/Em: 460 nm). […]
pIC50: −log10 of the molar value.
Reported values of pIC50 for individual entries

Study these solved cases before continuing.
{"columns": ["compound", "pIC50"],
 "data": [
  ["CC(=O)Nc1ncc(CN2C[C@H](Oc3cc(N4CCCC4)ncn3)C[C@@H]2C)s1", "> 9.00"],
  ["CC(=O)Nc1ncc(CN2C[C@H](Oc3ccc(F)c(C)n3)C[C@@H]2C)s1", "> 9.00"],
  ["COc1cc(O[C@@H]2CC[C@H](C)N(Cc3cnc(NC(C)=O)s3)C2)ncn1", "> 9.00"],
  ["[2H]C([2H])([2H])C(=O)Nc1ncc(CN2C[C@H](Oc3cc(OC)ncn3)C[C@@H]2C)s1 (single isomer, unassigned)", "> 9.00"],
  ["CC(=O)Nc1ncc(CN2C[C@H](Oc3ccc(F)nn3)C[C@@H]2C)s1", "> 9.00"],
  ["CC(=O)Nc1ncc(CN2C[C@H](Oc3cc(C)nc(C)n3)C[C@@H]2C)s1", "> 9.00"],
  ["CC(=O)Nc1ncc(CN2C[C@H](Oc3cc(N4CCC4)ncn3)C[C@@H]2C)s1", "> 9.00"],
  ["COCCOc1cnc(O[C@@H]2C[C@H](C)N(Cc3sc(NC(C)=O)nc3F)C2)cn1", "> 9.00"]
]}

Entry `COc1cc(O[C@H]2CC[C@H](C)N(Cc3sc(NC(C)=O)nc3F)C2)ncn1` : reported pIC50 = ? > 9.00

# pIC50 lookup, item `CO[C@H]1C[C@H](Oc2cc(O[C@@H]3C[C@H](C)N(Cc4cnc(NC(C)=O)s4)C3)ncn2)C1` > 9.00

State the recorded pIC50 for this entry: `COc1cc(O[C@H]2CCCN(Cc3sc(NC(C)=O)nc3F)C2)ncn1` 7.85

###

Each entry below carries its reported pIC50.
system name: Recombinant full length human OGA enzyme (Homo sapiens (Human))
test name: OGA Enzyme Inhibition Biochemical Assay
condition details: 1 nM OGA, 100 μM 4-MUGlcNAc, pH 6.4
pIC50: −log10 of the molar value.

Need pIC50, item `CC(=O)Nc1ncc(CN2C[C@@H](Oc3ccc(F)cn3)CC[C@@H]2C)s1` 8.80

###

system name: OGA (S400 O-GLCNAC), HEK-293T cells transfected with Tau-V5 (Homo sapiens (Human), UniProt O60502)
Sequence (O60502 whole entry): as above
test name: Cellular OGA-Tau MSD Assay
Assay type: cell-based
condition details: HEK-293T cells, Tau-S400-GlcNAc MSD readout
assay endpoint: IC50 (nM)

Consider the reported IC50 for these compounds:
{"columns": ["smiles representation", "reported value"],
 "data": [
  ["COc1ccc(O[C@@H]2C[C@H](C)N(Cc3sc(NC(C)=O)nc3F)C2)nc1", 1],
  ["COc1cccc(O[C@@H]2C[C@H](C)N(Cc3sc(NC(C)=O)nc3F)C2)n1", 1],
  ["CCNc1cc(O[C@@H]2C[C@H](C)N(Cc3cnc(NC(C)=O)s3)C2)ncn1", 1]
]}

(a) CC(=O)Nc1ncc(CN2C[C@H](Oc3cc(C)nc(C)c3)C[C@@H]2C)s1
(b) COc1cc(O[C@@H]2CCN(Cc3sc(NC(C)=O)nc3F)C2)ncn1
(c) CC(=O)Nc1nc(F)c(CN2CC[C@@H](Oc3cc(C)nc(C)c3)C2)s1
(d) COc1cc(O[C@H]2CCCN(Cc3cnc(NC(C)=O)s3)C2)ncn1
(e) CC(=O)Nc1ncc(CN2C[C@H](Oc3cc(NC(C)C)ncn3)C[C@@H]2C)s1
Rank the 5 compounds: largest IC50 first, smallest last. # format: label list in the order the request specifies b, d, c, e, a

###

test name: Rat Liver Microsome Stability Assay
Assay type: in vitro ADME
condition details: rat liver microsomes, 1 uM compound
assay endpoint: RLM % Qh (%)

(I) CCC(=O)Nc1nc(F)c(CN2CC[C@@H](Oc3cc(OC)ncn3)C2)s1
(II) CC(=O)Nc1nc(F)c(CN2C[C@H](Oc3ncccn3)C[C@@H]2C)s1
(III) CC(=O)Nc1nc(F)c(CN2C[C@@H](Oc3cc(C)nc(C)c3)CC[C@@H]2C)s1
(IV) CC(=O)Nc1nc(F)c(CN2C[C@@H](Oc3cc(C)nc(C)c3)C[C@H]2C)s1
Output the entries ranked by RLM % Qh (%) from maximum down to minimum. Provide the ranking by listing each label in its place in the requested order. III, I, II, IV
(III: 91%, I: 61%, II: 42%, IV: 26%)

(P) COc1cc(O[C@@H]2CCCN(Cc3sc(NC(C)=O)nc3F)C2)ncn1
(Q) CC(=O)Nc1ncc(CN2C[C@H](Oc3cc(N4CCC4)ncn3)C[C@@H]2C)s1
Hi there, can you help? I need to know whether P or Q has lower measured RLM % Qh (%). Respond using the label that marks the chosen record. Q
(Q: 43%, P: 65%)

###

system name: OGA (S400 O-GLCNAC), HEK-293T cells transfected with Tau-V5 (Homo sapiens (Human))
test name: Cellular OGA-Tau MSD Assay
Type: cell-based
condition details: HEK-293T cells, Tau-S400-GlcNAc MSD readout
assay endpoint: IC50 (nM)

Some molecules with recorded IC50:
{"columns": ["molecule", "u", "IC50"],
 "data": [
  ["CC(=O)Nc1ncc(CN2C[C@H](Oc3ccc(F)c(C)n3)C[C@@H]2C)s1 [Example 1-15]", "nM", 2],
  ["CC(=O)Nc1nc(F)c(CN2C[C@H](Oc3ccc(F)nn3)C[C@@H]2C)s1 [Example 1-111]", "nM", 1],
  ["COc1ccc(O[C@@H]2C[C@H](C)N(Cc3cnc(NC(C)=O)s3)C2)nn1 [Example 1-68]", "nM", 2]
]}

(1) CC(=O)Nc1ncc(CN2C[C@@H](Oc3cc(C)nc(C)c3)C[C@@H]2C)s1 [Example 1-62]
(2) CO[C@H]1C[C@H](Oc2cc(O[C@@H]3C[C@H](C)N(Cc4cnc(NC(C)=O)s4)C3)ncn2)C1 [Example 1-120]
Determine, for 1 and 2 , which has the greater value of IC50. // return label of chosen record 1

###

test name: Rat Liver Microsome Stability Assay
Type: in vitro ADME
condition details: rat liver microsomes, 1 uM compound
assay endpoint: RLM % Qh (%)

Before answering, review these 2 worked examples.
{"columns": ["compound", "RLM % Qh (%)"],
 "data": [
  ["COCCOc1cc(O[C@@H]2C[C@H](C)N(Cc3cnc(NC(C)=O)s3)C2)ncn1", 32],
  ["CC(=O)Nc1ncc(CN2C[C@@H](Oc3cc(C)nc(C)c3)C[C@H]2C)s1", 16]
]}

(I) [2H][C@]1(Oc2cc(OC)ncn2)C[C@H](C)N(Cc2cnc(NC(C)=O)s2)C1
(II) CC(=O)Nc1ncc(CN2C[C@H](Oc3ccc(F)c(C)n3)C[C@@H]2C)s1
Task for the reader: decide whether I or II has the larger RLM % Qh (%). Give the chosen item's label as your response. II
(II: 95%, I: 49%)

(I) CC(=O)Nc1ncc(CN2C[C@@H](Oc3ccc(C)nc3)C[C@H]2C)s1 (stereo in doubt)
(II) CC(=O)Nc1ncc(CN2C[C@H](Oc3cc(C)c(F)cn3)C[C@@H]2C)s1
I'm curious whether I or II has the smaller RLM % Qh (%) number. Which is it? When you have decided, please share the label of that item. I
(I: 55%, II: 81%)

###

System: P-gp (MDR1)
test name: MDR1-MDCK Efflux Ratio Assay
Assay type: in vitro ADME
condition details: dog, MDCK-MDR1, pH 7.4, MDR1-MDCK cells, 2 hr, pH 7.4; read-out: MDR1-MDCK Efflux Ratio (B-A/A-B)
assay endpoint: efflux ratio at 2 h

{"columns": ["molecule", "efflux ratio at 2 h"],
 "data": [
  ["CC(=O)Nc1ncc(CN2C[C@H](Oc3cc(OC4CCCC4)ncn3)C[C@@H]2C)s1", 2.6],
  ["CC(=O)Nc1nc(F)c(CN2C[C@H](Oc3cnc(C(F)F)cn3)C[C@@H]2C)s1", 2.1],
  ["CC(=O)Nc1nc(F)c(CN2C[C@H](Oc3cc(F)ccn3)C[C@@H]2C)s1", 1.2],
  ["CC(=O)Nc1nc(F)c(CN2CC[C@H](Oc3cc(C)nc(C)c3)C2)s1", 24.1],
  ["CC(=O)Nc1ncc(CN2C[C@H](Oc3cc(OC4COC4)ncn3)C[C@@H]2C)s1", 11.2],
  ["CC(=O)Nc1ncc(CN2C[C@H](Oc3cc(C)ncc3C)C[C@@H]2C)s1", 55.1],
  ["CC(=O)Nc1ncc(CN2CC[C@H](Oc3cc(C)nc(C)c3)C2)s1", 28.5],
  ["CC(=O)Nc1ncc(CN2C[C@H](Oc3ccnc(C)c3)C[C@@H]2C)s1", 16.7]
]}

(a) COc1cc(O[C@@H]2C[C@H](C)N(Cc3sc(NC(C)=O)nc3Cl)C2)ncn1
(b) [2H]c1nc(NC(C)=O)sc1CN1C[C@H](Oc2cc(OC)ncn2)C[C@@H]1C (single isomer, unassigned)
Smaller efflux ratio at 2 h value? Options are a and b Lab log: write the label of the selected item as the result. a
(a: 3.2, b: 6.2)

The reported measurements were obtained from patent US20240308995A1.
